- test_method_notes: AUC (0 to 24 hrs) in CAnN.Cg-Foxnlnu/Cr1Crlj mouse at 30 mg/kg, po measured upto 24 hrs by LC-MS/MS analysis
- Type: ADME, organism-based
- Set-up: route oral, dose 30 mg/kg, time <=24
- settings: in vivo
measured_quantity: AUC(0-t) (ng·h/mL)
Write down the numeric answer in ng·h/mL and omit the unit.

Input CC(C)n1cc(C(=O)Nc2ccc(Oc3cc(NC(=O)N4CCC(N5CCN(C)CC5)CC4)ncn3)cc2)c(=O)n(-c2ccc(F)cc2)c1=O . Output AUC(0-t): 18100

====

- test_method_notes: Metabolic stability in mouse liver microsomes assessed as residual ratio measured after 30 mins in presence of NADPH by LC-MS/MS analysis relative to absence of NADPH
- Format: ADME, Microsome
- settings: read-out: Stabilty
measured_quantity: remaining at 0.5 h (%)
Write down the numeric answer in % and omit the unit.

Input CC(C)n1cc(C(=O)Nc2ccc(Oc3ccnc(NC(=O)CN(C)C)c3)cc2)c(=O)n(-c2ccc(F)cc2)c1=O . Output remaining at 0.5 h: 19

Input CC(C)n1cc(C(=O)Nc2ccc(Oc3cc(NC(=O)N4CCC4)ncn3)cc2)c(=O)n(-c2ccc(F)cc2)c1=O . Output remaining at 0.5 h: 79

Input CC(C)n1cc(C(=O)Nc2ccc(Oc3ccnc(NC(=O)CC4CCN(C)CC4)c3)cc2)c(=O)n(-c2ccc(F)cc2)c1=O . Output remaining at 0.5 h: 81

Input CC(C)n1cc(C(=O)Nc2ccc(Oc3ccnc(NC(=O)CC4CCN(C)CC4)c3)cc2F)c(=O)n(-c2ccc(F)cc2)c1=O . Output remaining at 0.5 h: 76

Input CN1CCN(C2CCN(C(=O)Nc3cc(Oc4ccc(NC(=O)c5cn(C)c(=O)n(-c6ccc(F)cc6)c5=O)cc4)ncn3)CC2)CC1 . Output remaining at 0.5 h: 99

Input CC(C)n1cc(C(=O)Nc2ccc(Oc3cc(NC(=O)N4CCCC4)ncn3)cc2)c(=O)n(-c2ccc(F)cc2)c1=O . Output remaining at 0.5 h: 59

Input CC(C)n1cc(C(=O)Nc2ccc(Oc3cc(NC(=O)N4CC(O)C4)ncn3)cc2)c(=O)n(-c2ccc(F)cc2)c1=O . Output remaining at 0.5 h: 92

Input CC(C)n1cc(C(=O)Nc2ccc(Oc3cc(NC(=O)N4CC(N(C)C)C4)ncn3)cc2)c(=O)n(-c2ccc(F)cc2)c1=O . Output remaining at 0.5 h: 0.3

Input CN1CCC(CC(=O)Nc2cc(Oc3ccc(NC(=O)c4cc5c(n(-c6ccccc6)c4=O)CCCC5=O)c(F)c3)ccn2)CC1 . Output remaining at 0.5 h: 75

Input CC(C)n1cc(C(=O)Nc2ccc(Oc3cc(NC(=O)N4CCC(N5CCN(C)CC5)CC4)ncn3)cc2)c(=O)n(-c2ccc(F)cc2)c1=O . Output remaining at 0.5 h: 88
